experimental_endpoint: melting point

// solved cases for melting point follow
INSERT INTO measurements (molecule, experimental_endpoint, reported_measurement) VALUES
  ('COCCc1nc2c(N)nc3cc(-c4cccnc4)ccc3c2n1CC(C)(C)O', 'melting point', '158 to 160 °C'),
  ('COCCc1nc2c(N)nc3ccc(-c4cccnc4)cc3c2n1CCCN1CCCC1=O', 'melting point', '221 to 224 °C'),
  ('CC(C)(O)Cn1cnc2c(N)nc3cc(Cc4ccccc4)ccc3c21', 'melting point', '228 to 229 °C');

Ask: Which melting point value is on record for CCOCc1nc2c(N)nc3cc(-c4ccc(S(=O)(=O)CC)cc4)ccc3c2n1CCCOC ?
Reply: 156 to 158 °C

Ask: Which melting point value is on record for CCOCc1nc2c(N)nc3cc(-c4ccccc4)ccc3c2n1CC1CCNCC1 ?
Reply: 142 to 143 °C

Ask: Which melting point value is on record for CCCc1nc2c(N)nc3cc(-c4cccnc4)ccc3c2n1CCCCNC(=O)C1CCCC1 (hydrate or solvate) ?
Reply: 180 to 182 °C

Ask: Which melting point value is on record for CC(C)Cn1cnc2c(N)nc3ccc(CCCCc4ccccc4)cc3c21 ?
Reply: 176 to 177 °C

Ask: Which melting point value is on record for COCCc1nc2c(N)nc3cc(-c4ccccc4)ccc3c2n1CC(C)(C)O ?
Reply: 226 to 227 °C

* * *

experimental_endpoint: melting point

// solved cases for melting point follow
INSERT INTO results (molecule, reported_measurement) VALUES
  ('CCCc1nc2c(N)nc3cc(Cc4ccccc4)ccc3c2n1CC(C)(C)O (hydrate or solvate)', '130 to 131 °C'),
  ('CCOCc1nc2c(N)nc3cc(-c4cccc(C(=O)O)c4)ccc3c2n1CC(C)(C)O', '> 250 °C'),
  ('COCc1nc2c(N)nc3cc(-c4cnccc4OC)ccc3c2n1CC(C)(C)O', '220.5 to 222 °C'),
  ('COCCc1nc2c(N)nc3cc(-c4ccsc4)ccc3c2n1CC(C)(C)O', '233 to 234 °C'),
  ('CCCCCCC1(CCCCCC)c2cc(-c3ccc4c(c3)nc(N)c3nc(CCOC)n(CCCN5CCCC5=O)c34)ccc2-c2ccc(-c3ccc4c(c3)nc(N)c3nc(CCOC)n(CCCN5CCCC5=O)c34)cc21', '251 to 254 °C');

Ask: Which melting point value is on record for CCOCc1nc2c(N)nc3cc(-c4cccnc4)ccc3c2n1C[C@H]1COC(C)(C)O1 ?
Reply: 157 to 158 °C

Ask: Which melting point value is on record for CCOCc1nc2c(N)nc3cc(-c4ccc(C#N)cc4)ccc3c2n1CC(C)C ?
Reply: 211 to 212 °C

* * *

Parameter melting point: see the listing below.
Structures can show the parent of a compound that is named as a salt.

// solved cases for melting point follow
INSERT INTO measurements (compound, experimental_endpoint, reported_measurement) VALUES
  ('CCCC(=O)NCCCCn1c(CCC)nc2c(N)nc3cc(-c4cccnc4)ccc3c21 (hydrate or solvate)', 'melting point', '144 to 146 °C'),
  ('CCOCc1nc2c(N)nc3cc(-c4ccccc4)ccc3c2n1CCCOC', 'melting point', '146 to 147 °C'),
  ('CCOCc1nc2c(N)nc3cc(-c4ccc(CO)cc4)ccc3c2n1CCCOC', 'melting point', '228 to 229 °C'),
  ('CC(C)Cn1cnc2c(N)nc3ccc(-c4cccnc4)cc3c21', 'melting point', '244 to 246 °C'),
  ('CCOCc1nc2c(N)nc3cc(-c4cccnc4)ccc3c2n1CCCCS(=O)(=O)NCc1ccc(OC)cc1', 'melting point', '230 to 231.5 °C'),
  ('CCCCCCC1(CCCCCC)c2cc(-c3ccc4c(c3)nc(N)c3nc(COCC)n(CC(C)(C)O)c34)ccc2-c2ccc(-c3ccc4c(c3)nc(N)c3nc(COCC)n(CC(C)(C)O)c34)cc21', 'melting point', '261 to 265 °C'),
  ('CCc1nc2c(N)nc3ccc(-c4cccnc4)cc3c2n1CC(C)C', 'melting point', '> 250 °C'),
  ('CCOCc1nc2c(N)nc3cc(-c4ccccc4)ccc3c2n1CC(C)(C)NC(=O)NC1CCCCC1', 'melting point', '152 to 156 °C');

Ask: Which melting point value is on record for Nc1nc2cc(-c3ccccc3)ccc2c2c1ncn2CCCN1CCCC1=O ?
Reply: 201 to 204 °C

Ask: Which melting point value is on record for CCCc1nc2c(N)nc3cc(/C=C/c4cccnc4)ccc3c2n1CC(C)C (hydrate or solvate) ?
Reply: 190 to 192 °C

Ask: Which melting point value is on record for CCCc1nc2c(N)nc3cc(CCc4cccc(OC)c4)ccc3c2n1CC(C)C ?
Reply: 155 to 157 °C

Ask: Which melting point value is on record for CCOCc1nc2c(N)nc3cc(-c4cccnc4)ccc3c2n1CCN1CCN(S(C)(=O)=O)CC1 (hydrate or solvate) ?
Reply: 205 to 207 °C

Ask: Which melting point value is on record for CCOCc1nc2c(N)nc3cc(-c4ccccc4)ccc3c2n1CC1CCN(S(C)(=O)=O)CC1 ?
Reply: 224 to 225 °C

Ask: Which melting point value is on record for CCOCc1nc2c(N)nc3cc(-c4ccccc4)ccc3c2n1CC(C)C ?
Reply: 176.5 to 178 °C

Ask: Which melting point value is on record for CCOCc1nc2c(N)nc3cc(-c4cccc(C(=O)N5CCOCC5)c4)ccc3c2n1CCCOC ?
Reply: 174 to 176 °C

Ask: Which melting point value is on record for CCOCc1nc2c(N)nc3cc(-c4cccnc4)ccc3c2n1CC1CCN(S(C)(=O)=O)CC1 (as salt: HCl) ?
Reply: 254 to 255 °C
